assay: reduction of polyQ htt aggregates in cells – imaging, exon1htt(103Q)mCFP cells, high-content imaging, primary screen (AID 483); details: exon1htt(103Q)mCFP cell line, aggregate imaging, at 2 µM; stronger effect = higher value;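 also: compound exposure lasted 3 days before fixation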
Form field: inhibition of aggregation (one value per entry).
Measured Metric: inhibition of aggregation (%)

[
  {
    "Molecule": "CCOc1ccc(-c2cn(S(=O)(=O)c3cccc4nsnc34)nc2N)cc1",
    "Units Text": "%",
    "Reported": 8
  },
  {
    "Molecule": "Cc1cc(C)nc(NC2=NCC(=O)N2c2ccccc2Br)n1",
    "Units Text": "%",
    "Reported": -2.1
  },
  {
    "Molecule": "COc1ccc(C(=O)Nc2ccc(S(=O)(=O)NC(C)=O)cc2)cc1",
    "Units Text": "%",
    "Reported": 21.1
  },
  {
    "Molecule": "COc1ccc(CCNS(=O)(=O)c2ccc3oc(C(=O)O)c(C)c3c2)cc1OC",
    "Units Text": "%",
    "Reported": 3.9
  },
  {
    "Molecule": "c1cn2cc(CSC3CCCCC3)nc2s1",
    "Units Text": "%",
    "Reported": 12.1
  },
  {
    "Molecule": "COc1ccccc1NC(=O)CSc1nnc(-c2ccncc2)n1CC1CCCO1 (stereo unspecified)",
    "Units Text": "%",
    "Reported": -8.1
  },
  {
    "Molecule": "CCOc1ccc(-c2nnc3sc(-c4c(OC)cccc4OC)nn23)cc1",
    "Units Text": "%",
    "Reported": 0.4
  },
  {
    "Molecule": "CCCCCCc1ccc(-c2ncc(N)cn2)cc1",
    "Units Text": "%",
    "Reported": 26.5
  },
  {
    "Molecule": "COc1ccc(C)cc1NCc1cccc(OC)c1OC",
    "Units Text": "%",
    "Reported": 7
  },
  {
    "Molecule": "CS(=O)(=O)N1CCc2cc(S(=O)(=O)Nc3ccc4oc5c(c4c3)CCCC5)ccc21",
    "Units Text": "%",
    "Reported": -8.4
  },
  {
    "Molecule": "Cn1c(=O)c2c([nH]c(=O)n2C)n(C)c1=O",
    "Units Text": "%",
    "Reported": 2.6
  }
]

* * *

test: inhibitors of TNFa-induced NFkB p65 translocation, primary screen, imaging, HUVEC, MLSMR starter and 10KST1 sets (AID 438); settings: HUVEC TNFa-induced p65 nuclear translocation; measured here: nuclei count (cytotoxicity indicator), at 2.08 µM;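 also: compound added about 3h40 before a 20 min TNFalpha stimulation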
Note that class boundaries on cell count are lo (below 500), mid (500 to below 700), hi (700 or more)

[
  {
    "Compound": "Cn1c(=O)c2c(nc(SCCOc3ccc4ccc(=O)oc4c3)n2C)n(C)c1=O",
    "Class Name": "mid"
  },
  {
    "Compound": "CCCOc1ccccc1C1CC(=O)Nc2cc3c(cc21)OCCO3 (stereo not drawn)",
    "Class Name": "mid"
  },
  {
    "Compound": "Cc1cc2c(cc1C)-c1nnnn1C(C)(C)C2",
    "Class Name": "mid"
  },
  {
    "Compound": "CN1C(=O)C(CC(=O)N2CCN(C(c3ccccc3)c3ccccc3)CC2)N(C)C1=O (stereo not drawn)",
    "Class Name": "lo"
  },
  {
    "Compound": "Cc1ccccc1-c1nc(CS(=O)(=O)CC(=O)NCc2ccc3c(c2)OCO3)c(C)o1",
    "Class Name": "mid"
  },
  {
    "Compound": "CC(=O)Nc1ccc2c(c1)nc(CCNC(=O)c1ccccc1)n2C",
    "Class Name": "lo"
  },
  {
    "Compound": "Cc1cccc(NC(=O)C2CCCN(C(=O)Nc3ccccc3)C2)c1C (stereo not drawn)",
    "Class Name": "mid"
  },
  {
    "Compound": "Cc1ccc(S(=O)(=O)N2CCOCC(=O)NCCOCCNC(=O)COCC2)cc1",
    "Class Name": "mid"
  },
  {
    "Compound": "CCOC(=O)CCCOC(=O)c1ccc(S(=O)(=O)N(C)C)cc1",
    "Class Name": "lo"
  },
  {
    "Compound": "COc1ccc(C2(C(=O)N3CCCC3)CCOCC2)cc1OC",
    "Class Name": "lo"
  },
  {
    "Compound": "O=C(NC1CCCC1)C(c1cccs1)N(Cc1ccco1)C(=O)Cn1nnc(-c2cccs2)n1 (stereo not drawn)",
    "Class Name": "lo"
  },
  {
    "Compound": "CCOC(=O)Cc1cc(=O)n2[nH]c(C)c(-c3ccc(OC)cc3)c2n1",
    "Class Name": "mid"
  },
  {
    "Compound": "COc1ccc(-c2ccc(=O)n(Cc3cc(=O)n4ccccc4n3)n2)cc1",
    "Class Name": "hi"
  },
  {
    "Compound": "O=C1CC(N2CCN(c3ccc(Cl)c(Cl)c3)CC2)C(=O)N1 (stereo not drawn)",
    "Class Name": "lo"
  },
  {
    "Compound": "Cc1cccc(NC(=O)C2CCCN2C(=O)OCC(C)C)c1C (stereo not drawn)",
    "Class Name": "hi"
  },
  {
    "Compound": "CCOc1ccc2nc(NC(=O)CSc3nc4ccccc4c(=O)n3Cc3ccco3)sc2c1",
    "Class Name": "mid"
  },
  {
    "Compound": "O=S(=O)(NCc1ccccc1)c1ccc2c(c1)OCCO2",
    "Class Name": "lo"
  },
  {
    "Compound": "CC1CCC2C(C1)c1sc(=O)[nH]c1SC2(C)C (stereo not drawn)",
    "Class Name": "hi"
  },
  {
    "Compound": "COc1ccc(C(=O)Nc2ccc(C)cn2)c(OC)c1",
    "Class Name": "lo"
  },
  {
    "Compound": "CCOCC(=O)Nc1nc2c(s1)C(=O)CC(C)(C)C2",
    "Class Name": "hi"
  },
  {
    "Compound": "O=C(CCNS(=O)(=O)c1cccc2nsnc12)Nc1ccc2c(c1)OCCO2",
    "Class Name": "mid"
  },
  {
    "Compound": "O=C(O)c1cc(Cl)c(Cl)cc1C(=O)N1CCCC1",
    "Class Name": "lo"
  },
  {
    "Compound": "CCN1C(=O)c2cccc3c(NC(=O)c4ccc5c(c4)OCCO5)ccc1c23",
    "Class Name": "mid"
  }
]

* * *

assay: reduction of polyQ htt aggregates in cells – imaging, exon1htt(103Q)mCFP cells, high-content imaging, primary screen (AID 483); conditions: exon1htt(103Q)mCFP cell line, aggregate imaging, at 2 µM; stronger effect = higher value;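 also: compound exposure lasted 3 days before fixation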

[
  {
    "Molecule": "O=C(Nc1nc2c(s1)CCc1ccccc1-2)c1cccs1",
    "inhibition of aggregation (%)": -9.4
  },
  {
    "Molecule": "Cc1cc(C)n2nc[n+](C)c2n1",
    "inhibition of aggregation (%)": -10
  },
  {
    "Molecule": "CCOC(=O)C1CCCN(C(=O)c2sc3nc(-c4ccccc4)cn3c2C)C1 (centres undefined)",
    "inhibition of aggregation (%)": 5.7
  },
  {
    "Molecule": "COc1ccc(N2CCN(Cc3nc4c(c(=O)n(C)c(=O)n4C)n3Cc3ccccc3C)CC2)cc1",
    "inhibition of aggregation (%)": 5.8
  },
  {
    "Molecule": "Cn1cc(-c2nc3ccccc3[nH]2)c2ccccc21",
    "inhibition of aggregation (%)": 33.7
  },
  {
    "Molecule": "O=C(O)CCCC(=O)Nc1nc(-c2ccc(F)cc2)cs1",
    "inhibition of aggregation (%)": -6.1
  },
  {
    "Molecule": "CCOC(=O)c1ccc(NS(=O)(=O)c2ccc3c(c2)oc(=O)n3C)cc1",
    "inhibition of aggregation (%)": 25.3
  },
  {
    "Molecule": "Cc1ccnc2c(N3C(=O)C4C5C=CC(C5)C4(C)C3=O)cccc12 (centres undefined)",
    "inhibition of aggregation (%)": -2.2
  },
  {
    "Molecule": "O=S(=O)(c1ccc(S(=O)(=O)N2CCN3CCCC3C2)cc1)N1CCCC1 (centres undefined)",
    "inhibition of aggregation (%)": 31.8
  },
  {
    "Molecule": "COc1ccc(C)cc1NS(=O)(=O)c1ccc(NS(=O)(=O)c2ccc(NC(C)=O)cc2)cc1",
    "inhibition of aggregation (%)": -15.2
  },
  {
    "Molecule": "CCn1c(=S)ccc2ccc(OC)cc21",
    "inhibition of aggregation (%)": -4.2
  },
  {
    "Molecule": "[O-][n+]1c2ccc3nonc3c2nn1-c1ccccc1Cl",
    "inhibition of aggregation (%)": -11.3
  },
  {
    "Molecule": "COc1ccc2c(c1)OC(O)(C(F)F)CC2=O (centres undefined)",
    "inhibition of aggregation (%)": 5.7
  },
  {
    "Molecule": "Cc1cnc(C(=O)OCC(=O)Nc2ccc(Cl)cc2Cl)cn1",
    "inhibition of aggregation (%)": -16.9
  },
  {
    "Molecule": "O=C1NC(c2cccnc2)C(C(=O)c2cccs2)C(O)(C(F)(F)F)N1 (centres undefined)",
    "inhibition of aggregation (%)": 5
  },
  {
    "Molecule": "C/C=C/COC(=O)c1[nH]c2c(c1C)C(=O)CC(c1ccc(N(C)C)cc1)C2 (centres undefined)",
    "inhibition of aggregation (%)": 14.4
  },
  {
    "Molecule": "CC1CCCC(C)N1C(=O)CSc1nnc(-c2cccs2)o1 (centres undefined)",
    "inhibition of aggregation (%)": -29.6
  },
  {
    "Molecule": "C=C(C)Cn1c(N2CCN(CC)CC2)nc2c1c(=O)[nH]c(=O)n2C",
    "inhibition of aggregation (%)": -6.4
  },
  {
    "Molecule": "COc1ccc(C(c2nnnn2C2CCCC2)N2CCC(C)CC2)c(OC)c1 (centres undefined)",
    "inhibition of aggregation (%)": -6.5
  },
  {
    "Molecule": "c1cn(C23CC4CC(CC(C4)C2)C3)cn1",
    "inhibition of aggregation (%)": -9.2
  },
  {
    "Molecule": "O=C(c1cc2n(n1)C(C(F)(F)F)CC(c1ccc(Cl)cc1)N2)N1CCCC1 (centres undefined)",
    "inhibition of aggregation (%)": -22.3
  },
  {
    "Molecule": "CC(=O)Nc1ccc(NS(=O)(=O)C(F)(F)F)cc1",
    "inhibition of aggregation (%)": 8
  },
  {
    "Molecule": "CCCCC(=O)Nc1ccc(NC(=O)C2CC2)nc1",
    "inhibition of aggregation (%)": 16
  },
  {
    "Molecule": "CSc1c(C#N)c(N)c(C#N)c2c1COC(C)(C)C2",
    "inhibition of aggregation (%)": -6.1
  }
]
